Source: PubChem BioAssay AID330

- System: P388 leukemia ip, CD2F1 mice, survival T/C
- Assay: NCI In Vivo Anticancer Drug Screen. Data for tumor model P388 Leukemia (intraperitoneal) in CD2F1 (CDF1) mice
- Measurement setup: endpoint: median survival time; dose: 200.0 mg/kg/injection; schedule: Q01DX009 (ip); vehicle: saline with Tween-80; higher = longer survival
- Procedure: The antitumor activity of compounds was measured in mice bearing transplantable tumors. Survival or tumor size were measured and the results are expressed as the measurement made in the treated group (T) divided by the measurement made in the vehicle treated control group (C). The tumor model used in this assay is P388 Leukemia (intraperitoneal) in CD2F1 (CDF1) mice
Inconclusive results and toxic doses are left out.
Measurement type: T/C

Q: Which T/C reading was recorded for the compound NC(=O)NN1CC(=O)N(c2ccccc2)CC1=O ?
A: 95 % of control

Q: Which T/C reading was recorded for the compound Cc1cc(N(CCO)CCO)c2ccc3ccccc3c2n1 ?
A: 97 % of control

Q: Which T/C reading was recorded for the compound CSC#CC(Sc1c(Cl)c(Cl)c(Cl)c(Cl)c1Cl)=C(Sc1c(Cl)c(Cl)c(Cl)c(Cl)c1Cl)Sc1c(Cl)c(Cl)c(Cl)c(Cl)c1Cl ?
A: 92 % of control

Q: Which T/C reading was recorded for the compound CCc1cc(CC)c(-c2ccco2)c(COC(=O)NC)c1 ?
A: 106 % of control

Q: Which T/C reading was recorded for the compound COC(CCC1CO1)OC (stereo unspecified) ?
A: 99 % of control

Q: Which T/C reading was recorded for the compound O=C(CC(=O)NO)NO ?
A: 108 % of control

Q: Which T/C reading was recorded for the compound COc1ccccc1/C=C/C(=O)c1ccccc1 ?
A: 96 % of control

Q: Which T/C reading was recorded for the compound O=C(O)c1c(-c2ccccc2)cnc2ccccc12 ?
A: 97 % of control

Q: Which T/C reading was recorded for the compound C/C(=N\Nc1ccc([N+](=O)[O-])cc1[N+](=O)[O-])C1CC1 ?
A: 109 % of control

Q: Which T/C reading was recorded for the compound O=C(Nc1nccs1)C(F)(F)F ?
A: 99 % of control

Q: Which T/C reading was recorded for the compound Cc1c(C)[n+]([O-])c(-c2ccc(N(C)C)cc2)n1O ?
A: 94 % of control

Q: Which T/C reading was recorded for the compound FC(F)C(F)(F)C(F)(F)C(F)(F)COCC1(COCC(F)(F)C(F)(F)C(F)(F)C(F)F)COC1 ?
A: 109 % of control

Q: Which T/C reading was recorded for the compound CN(C)C1(c2ccccc2)CS(=O)(=O)C1 ?
A: 94 % of control

Q: Which T/C reading was recorded for the compound Oc1[nH]c(N=C2N=c3ccccc3=N2)c2ccccc12 ?
A: 104 % of control

Q: Which T/C reading was recorded for the compound COC1CC(C23C4CC2C3C2CC/C=C\CCC24)CC1OC (stereo unspecified) ?
A: 102 % of control

Q: Which T/C reading was recorded for the compound NC(=O)NC(CC(=O)O)C(=O)O (stereo unspecified) ?
A: 106 % of control

Q: Which T/C reading was recorded for the compound [Cl][Sn]([Cl])([S]c1nccc2ccccc12)[S]c1nccc2ccccc12 ?
A: 93 % of control

Q: Which T/C reading was recorded for the compound COP(=O)(O)OC.[Th] ?
A: 90 % of control

Q: Which T/C reading was recorded for the compound CC(=O)OC1CC2CCC1(/C=C/C(=O)c1ccccc1)C2 (stereo unspecified) ?
A: 113 % of control

Q: Which T/C reading was recorded for the compound [S-]c1n[n+](-c2ccccc2)c(-c2ccccc2)s1 ?
A: 93 % of control

Q: Which T/C reading was recorded for the compound Cc1ccc(C)c(CCNC=O)c1 ?
A: 103 % of control

Q: Which T/C reading was recorded for the compound COc1nc2c(=O)[nH]c(N)nc2n1C1OC(CO)C(O)C1O (stereo unspecified) ?
A: 113 % of control

Q: Which T/C reading was recorded for the compound CCCCCC(CN1CCOCC1)C(=O)/C=C/c1ccccc1 (stereo unspecified) ?
A: 101 % of control

Q: Which T/C reading was recorded for the compound O=CNc1ccc(O)cc1 ?
A: 109 % of control

Q: Which T/C reading was recorded for the compound CCCCN(C(=O)C(C)C)c1nc(C)co1 ?
A: 96 % of control

Q: Which T/C reading was recorded for the compound O=S(=O)(O)CCCBr ?
A: 104 % of control
